- Test system: TO-N3 (biotin conjugate)
- procedure details: pull-down binding Z-score (relative to library population); higher = stronger binding
- details: RNA library: Library-2

- chain: "CAAUCAUGUGUAAUUAGAUAUGAUUG [hsa-mir-514b]"
  pull-down binding Z-score: -1.38
- chain: "CACAGUUCUGG [hsa-mir-761]"
  pull-down binding Z-score: 0.102
- chain: "AGACUCUGGAUUUUACACUUGGAGUG [hsa-mir-887]"
  pull-down binding Z-score: -0.207
- chain: "GGAUCCCGACUGGCGAGAGCCAGGUAACGAAUGGAUCC [MG-aptamer]"
  pull-down binding Z-score: 0.277
- chain: "UUCUCGGUUGGCCGCAGACUCGUACAAGAA [hsa-mir-219b]"
  pull-down binding Z-score: 0.0802
- chain: "GGAUGGCCAGGGAAGUAUGCCGGGCCUUGGCAUUUC [hsa-mir-7159]"
  pull-down binding Z-score: 0.814
